The origin of these recorded values is patent US20230183592A1.

settings: sum of five 0/1 risk factors, 0 (lack of risk) to 5 (very high multiple risk)
Listing of recorded Risk level by entry.
experimentalEndpoint: Risk level

In [3]: df
Out[3]:
                                   compound  experimentalendpoint  readingqualifier  valueobserved
0  Cc1ccccc1OP(=O)(Oc1ccccc1C)Oc1ccccc1C [Compound B, Tri(ortho-cresyl)phosphate]            Risk level                 =              5
1  CC(C)(C)c1ccc(OP(=O)(Oc2ccc(C(C)(C)C)cc2)Oc2ccc(C(C)(C)C)cc2)cc1 [Compound I2, Tri(p-tert-butylphenyl)phosphate]            Risk level                 =              3
2  Cc1cccc(OP(=O)(Oc2cccc(C)c2)Oc2cccc(C)c2)c1 [Compound C, Tri(meta-cresyl)phosphate]            Risk level                 =              5
3  CCCCOC(=O)CC(SP(=S)(OCC(CC)CCCC)OCC(CC)CCCC)C(=O)OCCCC (stereo not drawn)            Risk level                 ≥              1
4  CC(C)(C)c1ccc(OP(=O)(Oc2ccccc2)Oc2ccc(C(C)(C)C)cc2)cc1 [Compound H, di(p-tertbutylphenyl)phenylphosphate]            Risk level                 =              3
5  CCCCC(CC)COP(=O)(OCC(CC)CCCC)OCC(CC)CCCC (stereo not drawn) [Compound M, Tris(2-ethylhexyl)phosphate]            Risk level                 ≥              2
6  CC(C)COP(=O)(OCC(C)C)OCC(C)C [Compound L, Tri(isobutyl)phosphate]            Risk level                 =              4
7  CC(C)CCCCCCCOP(=O)(Oc1ccccc1)Oc1ccccc1 [Compound 1, isodecyl diphenylphosphate]            Risk level                 =              0
8  O=P(Oc1ccccc1)(Oc1ccccc1)Oc1ccccc1 [Compound I1, tri phenyl phosphate]            Risk level                 =              4
